System: tobacco budworm (Heliothis virescens [Fabricius])
Experiment: surface-treated diet test against tobacco budworm
Assay type: in vivo
Details: 0.25 millimolar on the surface of the diet; second instar larvae; five-day exposure; inhibition of insect weight relative to untreated controls
Experimental: Candidate insecticides were evaluated for activity against the tobacco budworm (Heliothis virescens [Fabricius]) in a surface-treated diet test. […] After the five-day exposure period insecticidal activity for each rate of application of candidate insecticide was assessed as percent inhibition of insect weight relative to the weight of insects from untreated controls, and percent mortality when compared to the total number of insects infested. […]
Quick reference for Percent Growth Inhibition among some compounds

[
  {
    "COMPOUND": "[O-][N+]1(Cc2ccc(CC3OCCO3)cc2)CCC(C(O)(c2ccc(OC(F)(F)F)cc2)c2ccc(OC(F)(F)F)cc2)CC1 (stereo not drawn) [Compound 184]",
    "TARGET_OR_TEST_SYSTEM": "tobacco budworm (Heliothis virescens [Fabricius])",
    "Percent Growth Inhibition / %": 100
  },
  {
    "COMPOUND": "OC(c1ccc(OC(F)(F)F)cc1)(c1ccc(OC(F)(F)F)cc1)C1CCN(Cc2ccc(C3O[C@H]4CCCC[C@H]4O3)cc2)CC1 (stereo partly drawn) [Compound 115]",
    "TARGET_OR_TEST_SYSTEM": "tobacco budworm (Heliothis virescens [Fabricius])",
    "Percent Growth Inhibition / %": 100
  },
  {
    "COMPOUND": "[O-][N+]1(Cc2ccc(OCC3(c4ccccc4)OCCO3)cc2)CCC(C(O)(c2ccc(OC(F)(F)F)cc2)c2ccc(OC(F)(F)F)cc2)CC1 (stereo not drawn) [Compound 185]",
    "TARGET_OR_TEST_SYSTEM": "tobacco budworm (Heliothis virescens [Fabricius])",
    "Percent Growth Inhibition / %": 100
  }
]

Measured values drawn from patent US20090082203A1 for this set.
